Recorded values, source ChEMBL document CHEMBL1145768.

- studySystem: Microsomal triglyceride transfer protein large subunit (Bos taurus)
- Sequence (P55156 whole entry): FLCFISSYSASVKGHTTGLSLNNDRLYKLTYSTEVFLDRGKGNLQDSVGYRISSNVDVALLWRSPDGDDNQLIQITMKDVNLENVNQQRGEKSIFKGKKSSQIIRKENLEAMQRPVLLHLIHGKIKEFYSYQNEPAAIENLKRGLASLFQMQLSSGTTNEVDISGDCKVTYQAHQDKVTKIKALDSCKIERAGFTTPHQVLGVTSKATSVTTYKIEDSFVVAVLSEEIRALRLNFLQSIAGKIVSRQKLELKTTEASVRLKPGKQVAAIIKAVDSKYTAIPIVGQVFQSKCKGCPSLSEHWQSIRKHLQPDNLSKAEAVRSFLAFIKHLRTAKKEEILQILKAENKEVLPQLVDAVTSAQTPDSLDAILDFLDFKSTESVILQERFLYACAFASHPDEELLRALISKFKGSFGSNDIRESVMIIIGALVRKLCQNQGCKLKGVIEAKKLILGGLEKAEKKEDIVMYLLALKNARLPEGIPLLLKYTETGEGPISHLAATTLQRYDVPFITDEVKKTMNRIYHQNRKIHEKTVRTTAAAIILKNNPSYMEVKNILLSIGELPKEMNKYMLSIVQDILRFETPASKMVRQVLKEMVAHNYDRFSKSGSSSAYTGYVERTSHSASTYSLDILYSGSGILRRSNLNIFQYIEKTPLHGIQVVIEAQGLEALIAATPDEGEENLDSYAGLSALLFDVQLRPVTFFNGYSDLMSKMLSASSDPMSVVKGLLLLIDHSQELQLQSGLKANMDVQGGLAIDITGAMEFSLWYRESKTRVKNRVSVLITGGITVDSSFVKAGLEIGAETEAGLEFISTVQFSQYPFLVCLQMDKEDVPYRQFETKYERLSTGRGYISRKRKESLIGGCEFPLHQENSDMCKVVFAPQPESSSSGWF
- experimentSummary: Inhibitory activity against microsomal triglyceride transfer protein (MTP)
Field 'label' (enum: MET / NOT MET). Set to MET when IC50 is strictly under 5000 nM; else NOT MET.

State whether 5000 nM exceeds IC50 recorded for CC(C)COP(=O)(CCCCC1(C(=O)NCC(F)(F)F)c2ccccc2-c2ccccc21)OCC(C)C .
MET

And the next one, CCCCOP(=O)(CCCSc1nc(-c2ccccc2)c(-c2ccccc2)o1)OCCCC ?
NOT MET

Note, next up: O=C(NCC(F)(F)F)C1(CCCCP(=O)(OCc2ccncc2)OCc2ccncc2)c2ccccc2-c2ccccc21
MET

O=C(NCC(F)(F)F)C1(CCCCP(=O)(OCCc2ccccn2)OCCc2ccccn2)c2ccccc2-c2ccccc21 ?
MET

Repeat for the following molecule: CCCCOP(=O)(CCCCCCC1(C(=O)NCC(F)(F)F)c2ccccc2-c2ccccc21)OCCCC
MET

Can you handle CCCCOP(=O)(CCCSc1nc2ccc(OCC)cc2n1C)OCCCC next?
NOT MET

Same lookup for CCCCOP(=O)(CCCCCSc1nc2ccc(OCC)cc2s1)OCCCC , please.
NOT MET

What would you report for CCCCOP(=O)(CCCOc1cccc2ccccc12)OCCCC ?
NOT MET

Here is the next molecule: O=C(NCC(F)(F)F)C1(CCCCP(=O)(OCc2ccccn2)OCc2ccccn2)c2ccccc2-c2ccccc21
MET

And O=C(NC1CCN(CCCC2(C(=O)NCC(F)(F)F)c3ccccc3-c3ccccc32)CC1)c1ccccc1 ?
MET

Cc1cccc(CCCOP(=O)(CCCCC2(C(=O)NCC(F)(F)F)c3ccccc3-c3ccccc32)OCCCc2cccc(C)n2)n1 ?
MET

// repeat for CCCCOP(=O)(CCCCC1(C(=O)NCc2ccc(N)cc2)c2ccccc2-c2ccccc21)OCCCC and report
MET

Now the same for CCOP(=O)(CCCCC1(C(=O)NCC(F)(F)F)c2ccccc2-c2ccccc21)OCC
MET

What do you have for Cc1cccc(COP(=O)(CCCCC2(C(=O)NCC(F)(F)F)c3ccccc3-c3ccccc32)OCc2cccc(C)n2)n1 ?
MET

Also CCCCOP(=O)(CCCSc1ccncc1)OCCCC ?
NOT MET

What do we get for CCCCOP(=O)(CCCCC1(C(=O)NCCC)c2ccccc2-c2ccccc21)OCCCC ?
MET

Also CCCCOP(=O)(CCCOc1ccccc1)OCCCC ?
MET

Do the same for CCCCOP(=O)(CCCSc1nc(-c2ccccc2)c(-c2ccccc2)[nH]1)OCCCC please
NOT MET

What do you have for CCCCOP(=O)(CCCCC1(C(=O)NCC(F)(F)F)c2ccccc2-c2ccccc21)OCCCC ?
MET
